Hey, just so you know, these numbers are from patent US20260138978A1.

target: human mAChRM1 (Homo sapiens, UniProt P11229); construct: host or cells: CHO-K1; assay: mAChR M1 cell-based functional assay (calcium mobilization), positive allosteric modulator activity: increase in the EC20 acetylcholine response; settings: PAM mode
Sequence (P11229 whole entry): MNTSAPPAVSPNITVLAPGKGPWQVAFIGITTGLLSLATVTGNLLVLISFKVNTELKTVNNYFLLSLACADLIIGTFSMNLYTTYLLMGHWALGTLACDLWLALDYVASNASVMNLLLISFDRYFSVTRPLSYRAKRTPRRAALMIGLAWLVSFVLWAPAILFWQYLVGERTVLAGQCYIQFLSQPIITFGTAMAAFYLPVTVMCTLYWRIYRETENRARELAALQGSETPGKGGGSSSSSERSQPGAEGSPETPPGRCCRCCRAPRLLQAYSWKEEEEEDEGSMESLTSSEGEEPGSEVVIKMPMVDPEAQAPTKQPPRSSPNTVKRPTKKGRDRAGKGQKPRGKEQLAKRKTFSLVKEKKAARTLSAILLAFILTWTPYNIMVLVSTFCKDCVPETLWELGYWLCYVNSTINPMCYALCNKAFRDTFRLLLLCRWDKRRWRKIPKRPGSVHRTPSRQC
parameter: Emax (%)

COCCOc1cc(-c2ccc(C(C)(C)O)c3nn(C)cc23)cc(F)c1CN1Cc2cccnc2C1=O [Compound 126]: 83
Cn1cc2c(-c3cc(F)c(CN4Cc5cccnc5C4=O)c(Cl)c3)ccc(C(C)(C)O)c2n1 [Compound 122]: 86
Cc1cc(-c2cc(C(C)(C)O)c3nn(C)cc3c2)ccc1CN1Cc2ncccc2C1=O [Compound 35]: 68
CC(C)(O)c1ccc(-c2ccc(CN3Cc4ncccc4C3=O)c(F)c2)c2ccccc12 [Compound 73]: 58
Cc1cc(-c2cc3c(c(C(C)(C)O)c2)OCO3)cc(F)c1CN1Cc2ncccc2C1=O [Compound 18]: 49

P: Cc1cc(-c2ccc(C(C)(C)O)cc2)cc(F)c1CN1Cc2ncccc2C1=O [Compound 9]
Q: Cn1cc2c(C(C)(C)O)cc(-c3cc(F)c(CN4Cc5ncccc5C4=O)c(F)c3)cc2n1 [Compound 19]
Request: // compare measured Emax, left P , right Q , return larger Kindly state the label of the option you pick.
Response: P
(P: 76%, Q: 50%)
